Target: GST-Ap-NF-kB RHD (Exaiptasia pallida (Aiptasia), UniProt A0A913YAJ5 2-422)
Sequence: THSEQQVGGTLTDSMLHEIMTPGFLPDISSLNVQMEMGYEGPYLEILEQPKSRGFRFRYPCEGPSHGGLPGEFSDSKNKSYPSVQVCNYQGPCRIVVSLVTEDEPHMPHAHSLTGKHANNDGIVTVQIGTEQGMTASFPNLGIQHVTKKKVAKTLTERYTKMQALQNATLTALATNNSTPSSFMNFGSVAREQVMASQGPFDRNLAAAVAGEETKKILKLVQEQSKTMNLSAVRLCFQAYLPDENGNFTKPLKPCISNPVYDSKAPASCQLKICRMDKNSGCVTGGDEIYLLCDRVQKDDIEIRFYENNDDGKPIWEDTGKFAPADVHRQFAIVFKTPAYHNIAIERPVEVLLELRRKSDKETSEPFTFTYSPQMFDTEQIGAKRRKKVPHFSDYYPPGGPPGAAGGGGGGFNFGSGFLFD
Test: protein-binding microarray (PBM); PBM: ~300 nM protein, 6 mM HEPES pH 7.8, 80 mM KCl, 0.5 mM EDTA, 0.5 mM EGTA, 6% glycerol, 35 ng/ul poly-dIdC, 1% milk, 1 h, room temperature; high values mean tight binding
Details: dsDNA, one strand shown
VALUE_KIND: binding signal (z-score)
One number for each entry, in z-score.

Endpoint output: binding signal of CCGATTAACATCAAGAATTTCCCTGATGTTAATCGGGTCTTGATTCGCTTGACGCTGCTG . Value?
5.92

Find the recorded binding signal belonging to CCGATTAACATCAACGTCCCCCCTGATGTTAATCGGGTCTTGATTCGCTTGACGCTGCTG and report it.
5.15

Need binding signal of CCGATTAACATCACGGGATTTGGTGATGTTAATCGGGTCTTGATTCGCTTGACGCTGCTG , thanks.
1.89

Recorded binding signal for CCGATTAACATCAGGGATAACCCTGATGTTAATCGGGTCTTGATTCGCTTGACGCTGCTG , please?
3.63

Further cases:
Requested read-out: binding signal. Entry: CCGATTAACATCAAGGAAGTCCCTGATGTTAATCGGGTCTTGATTCGCTTGACGCTGCTG
5.76

* * *

Target: GST-Nv-NF-kB (Cys allele) (Nematostella vectensis, UniProt E5G601 2-411)
Sequence: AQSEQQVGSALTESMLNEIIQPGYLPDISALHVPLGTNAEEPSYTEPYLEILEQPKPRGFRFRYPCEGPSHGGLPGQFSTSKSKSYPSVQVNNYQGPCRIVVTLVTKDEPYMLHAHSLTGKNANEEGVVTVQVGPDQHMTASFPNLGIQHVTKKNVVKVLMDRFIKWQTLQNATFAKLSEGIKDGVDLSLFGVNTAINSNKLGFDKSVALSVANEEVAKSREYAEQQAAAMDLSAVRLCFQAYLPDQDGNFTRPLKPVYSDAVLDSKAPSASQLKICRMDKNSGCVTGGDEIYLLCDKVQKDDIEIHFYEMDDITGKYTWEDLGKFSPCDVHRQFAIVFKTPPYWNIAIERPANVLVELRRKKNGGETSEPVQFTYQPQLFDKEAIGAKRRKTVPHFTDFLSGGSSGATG
Assay: protein-binding microarray (PBM); PBM: ~300 nM protein, 6 mM HEPES pH 7.8, 80 mM KCl, 0.5 mM EDTA, 0.5 mM EGTA, 6% glycerol, 35 ng/ul poly-dIdC, 1% milk, 1 h, room temperature; high values mean tight binding
Conditions: dsDNA, one strand shown
VALUE_KIND: binding signal
Remember to follow the number with its unit.

// solved cases for binding signal follow
Given CCGATTAACATCAAATCACCCCCTGATGTTAATCGGGTCTTGATTCGCTTGACGCTGCTG , state its recorded binding signal.
4.59 z-score

# lookup: binding signal of CCGATTAACATCAGGATATTCCCTGATGTTAATCGGGTCTTGATTCGCTTGACGCTGCTG
5.16 z-score

# query: binding signal of entry CCGATTAACATCAAAACAGCCCCTGATGTTAATCGGGTCTTGATTCGCTTGACGCTGCTG
4.9 z-score

Which binding signal is listed for CCGATTAACATCAAGGGGAAATCTGATGTTAATCGGGTCTTGATTCGCTTGACGCTGCTG ?
9.53 z-score

Which measured binding signal value corresponds to CCGATTAACATCAAAACACCCCCTGATGTTAATCGGGTCTTGATTCGCTTGACGCTGCTG ?
5.71 z-score

So what does the record say about binding signal for CCGATTAACATCAAAATTCCCCCTGATGTTAATCGGGTCTTGATTCGCTTGACGCTGCTG ?
11.6 z-score

Each sequence below has a reported value. Please supply its binding signal.
1. CCGATTAACATCAAGGGCTTCCCTGATGTTAATCGGGTCTTGATTCGCTTGACGCTGCTG
2. CCGATTAACATCAAGCATTTCCCTGATGTTAATCGGGTCTTGATTCGCTTGACGCTGCTG
3. CCGATTAACATCAGGGGTTTTGATGATGTTAATCGGGTCTTGATTCGCTTGACGCTGCTG

1: 1.82 z-score; 2: 4.4 z-score; 3: 3.46 z-score

* * *

I'd be grateful if you could share measured binding signal for these entries.
Target: GST-Hu-p50 (Homo sapiens, UniProt P19838 7-356)
Sequence (P19838 7-356): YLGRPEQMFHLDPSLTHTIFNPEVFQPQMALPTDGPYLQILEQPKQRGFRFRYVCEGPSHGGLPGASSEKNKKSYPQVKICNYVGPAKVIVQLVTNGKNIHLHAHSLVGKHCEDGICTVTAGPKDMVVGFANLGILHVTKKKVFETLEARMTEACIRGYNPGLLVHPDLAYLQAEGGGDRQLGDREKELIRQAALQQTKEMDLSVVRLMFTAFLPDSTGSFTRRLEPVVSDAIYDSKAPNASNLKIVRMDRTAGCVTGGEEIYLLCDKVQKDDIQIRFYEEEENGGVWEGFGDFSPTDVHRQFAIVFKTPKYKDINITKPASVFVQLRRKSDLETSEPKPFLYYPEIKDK
Assay: protein-binding microarray (PBM); PBM: ~300 nM protein, 6 mM HEPES pH 7.8, 80 mM KCl, 0.5 mM EDTA, 0.5 mM EGTA, 6% glycerol, 35 ng/ul poly-dIdC, 1% milk, 1 h, room temperature; high values mean tight binding
Conditions: dsDNA, one strand shown
Numbers only, in z-score.

The following sequences have reported results that may help.
What value of binding signal has been reported for the following sequence? CCGATTAACATCAGGGAAGAACCTGATGTTAATCGGGTCTTGATTCGCTTGACGCTGCTG
2.83

Give its binding signal value. Item: CCGATTAACATCAACAATCCCCCTGATGTTAATCGGGTCTTGATTCGCTTGACGCTGCTG
6.6

What value of binding signal has been recorded for this entry: CCGATTAACATCAAGAATTCCCCTGATGTTAATCGGGTCTTGATTCGCTTGACGCTGCTG
7.54

Can you look up the measured binding signal of CCGATTAACATCAGGGAGTTCACTGATGTTAATCGGGTCTTGATTCGCTTGACGCTGCTG for me?
2.32

Fill in: binding signal of CCGATTAACATCAGGGAGGGAAATGATGTTAATCGGGTCTTGATTCGCTTGACGCTGCTG is ___
2.8

Bench note: what binding signal did CCGATTAACATCACAAGTTCCCCTGATGTTAATCGGGTCTTGATTCGCTTGACGCTGCTG show?
5.93

Would you mind telling me what binding signal value was observed for CCGATTAACATCAGGGGAATTACTGATGTTAATCGGGTCTTGATTCGCTTGACGCTGCTG ?
7.09

Query sequence follows.
Find the recorded binding signal belonging to CCGATTAACATCAAAAACCCCCATGATGTTAATCGGGTCTTGATTCGCTTGACGCTGCTG and report it.
7.91

* * *

Biological target: GST-Dm-Relish (Drosophila melanogaster, UniProt Q94527 99-473)
Sequence: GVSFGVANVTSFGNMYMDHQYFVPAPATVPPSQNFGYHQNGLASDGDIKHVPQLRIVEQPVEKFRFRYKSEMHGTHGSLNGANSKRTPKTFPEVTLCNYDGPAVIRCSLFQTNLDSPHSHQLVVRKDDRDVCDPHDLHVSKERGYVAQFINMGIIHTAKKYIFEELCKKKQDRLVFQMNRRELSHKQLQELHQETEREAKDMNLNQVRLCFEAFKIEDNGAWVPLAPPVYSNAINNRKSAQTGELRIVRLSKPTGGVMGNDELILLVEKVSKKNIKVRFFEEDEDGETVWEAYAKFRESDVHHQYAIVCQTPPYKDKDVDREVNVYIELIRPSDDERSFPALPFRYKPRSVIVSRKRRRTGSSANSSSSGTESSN
Assay: protein-binding microarray (PBM); PBM: ~300 nM protein, 6 mM HEPES pH 7.8, 80 mM KCl, 0.5 mM EDTA, 0.5 mM EGTA, 6% glycerol, 35 ng/ul poly-dIdC, 1% milk, 1 h, room temperature; Ap Aiptasia and Nv Nematostella (sea anemones) / Co Capsaspora / Aq Amphimedon (sponge) / Dm Drosophila / Hu human; RHD is the Rel homology domain; high values mean tight binding
Conditions: dsDNA, one strand shown
Param label: returns class 1 when binding signal < 3 z-score, returns class 0 otherwise, including exact equality.

Illustrative cases are given below, each with its answer.
binding signal under 3 z-score? Item: CCGATTAACATCAGGGGTGGGGATGATGTTAATCGGGTCTTGATTCGCTTGACGCTGCTG
class 1

Given the entry CCGATTAACATCAAAATTTCCCTTGATGTTAATCGGGTCTTGATTCGCTTGACGCTGCTG , would its reported binding signal be below 3 z-score?
class 0

In plain terms, does CCGATTAACATCAAAATCCCGGGTGATGTTAATCGGGTCTTGATTCGCTTGACGCTGCTG come in under 3 z-score for binding signal?
class 0

Does CCGATTAACATCACATACTCCCCTGATGTTAATCGGGTCTTGATTCGCTTGACGCTGCTG have binding signal strictly under 3 z-score?
class 1

I wonder whether CCGATTAACATCAGGTAAATACCTGATGTTAATCGGGTCTTGATTCGCTTGACGCTGCTG has binding signal below 3 z-score. Can you tell?
class 0

Does CCGATTAACATCAACCACCCCCTTGATGTTAATCGGGTCTTGATTCGCTTGACGCTGCTG have binding signal strictly under 3 z-score?
class 1

Below 3 z-score on binding signal? Entry CCGATTAACATCATACTTCCCCATGATGTTAATCGGGTCTTGATTCGCTTGACGCTGCTG
class 0

hey, is binding signal for CCGATTAACATCAGTAGTTTCCATGATGTTAATCGGGTCTTGATTCGCTTGACGCTGCTG lower than 3 z-score or not?
class 1

Next, consider the following sequence.
Find out if reported binding signal for CCGATTAACATCAAAGATTTCCCTGATGTTAATCGGGTCTTGATTCGCTTGACGCTGCTG is less than 3 z-score
class 1

// provenance: paper PMC5700166
